- Test system: Plasmodium falciparum
- PROCEDURE_TEXT: MMV: P. falciparum NF54 functionally mature Stage V gametocytes were incubated for 24 hr in the presence of the test compounds. Gamete formation was then triggered by addition of 2uM xantheurenic acid and temperature decrease to ~20C. Male gamete exflagellation was recorded and analysed by automated microscopy after 20 min. All compounds were tested in 4 independent experiments and data presented here is the mean.
- Format: functional
- Parameters: concentration or dose not given beside the values
OBSERVATION_TYPE: inhibition (%)
Express it in %; write the number only.

CCOc1ccc(CCNC(=O)c2cccs2)cc1OCC | 22
COc1ccc(C)c2sc(N(Cc3cccnc3)C(=O)c3ccc(C#N)cc3)nc12 | -18.7
N#Cc1nc(Cc2cccc3ccccc23)oc1N1CCN(C(c2ccccc2)c2ccccc2)CC1 | 10.2

Could you please provide reported inhibition for "Cc1cc(NC(=O)c2ccc(-c3ccccc3)cc2)no1" ? Thanks!
18.9

Input O=C(NC(c1ccccc1)c1ccc2cccnc2c1O)c1ccccc1 (configuration not stated) , output reported inhibition.
5.16

# return recorded inhibition for entry CCC(C)NCC(O)(c1ccc(Cl)cc1)c1ccc(Cl)cc1 (configuration not stated)
25.7

Supply reported inhibition belonging to this compound: "c1ccc(/C2=N/c3ccccc3/N=C(/c3ccccc3)c3ccccc32)cc1"
41.7

Answer with reported inhibition of "O=C(Nc1cccc(-c2nc3ccccc3[nH]2)c1)c1cccc(NC(=O)c2ccco2)c1"
31.6

Identify measured inhibition associated with "Cc1ccc2nc(C)cc(Nc3cccc(C(F)(F)F)c3)c2c1.Cl"
-27.5

Give the reported value of inhibition for this record: CCCCCn1c(=N)n(CC(O)COc2cccc(C)c2)c2ccccc21.Cl (configuration not stated)
-6.7

Report inhibition, nothing else, for this compound: "COc1ccc(C(=O)Nc2ccc3nc(N4CCCCC4)cc(C)c3c2)cc1OC"
9.9

Give the reported inhibition for this compound. CCOC(=O)C1=C(C)N=c2sc(=Cc3cc(Cl)ccc3O)c(=O)n2C1c1ccc(OC)cc1 (configuration not stated)
-29.2

====

- Test system: Plasmodium falciparum
- PROCEDURE_TEXT: MMV: P. falciparum NF54 functionally mature Stage V gametocytes were incubated for 24 hr in the presence of the test compounds. Gamete formation was then triggered by addition of 2uM xantheurenic acid and temperature decrease to ~20C. Male gamete exflagellation was recorded and analysed by automated microscopy after 20 min. All compounds were tested in 4 independent experiments and data presented here is the mean.
- Type: functional
- Design: concentration or dose not given beside the values
Tag: TRUE if measured inhibition is not below 20%, FALSE if it is.

Solved entries (count: 10):
Nc1nc(Nc2cccc(F)c2)nc2ccccc12 | FALSE
O=C(NC1CCCC1)c1ccc(N2CCC(NCc3cccc(C(F)(F)F)c3)CC2)cc1 | FALSE
C[n+]1c2ccccc2nc2ccc(NCCO)cc21 | TRUE
COCCNCC(O)Cn1c2ccc(Cl)cc2c2cc(Cl)ccc21 (stereo not drawn) | FALSE
Cc1[nH]c(-c2ccc(F)cc2)cc1C(=O)NC1CCN(Cc2ccccc2)CC1 | FALSE
Cc1sc(NC(=O)c2ccco2)c(C(c2cccnc2)N2CCC(Cc3ccccc3)CC2)c1C (stereo not drawn) | FALSE
COc1ccc(C(=O)C2CC2c2ccc(Cl)cc2)cc1 (stereo not drawn) | FALSE
CCOC(=O)c1cnc2ccc(Cl)cc2c1NCCCN(C)C | FALSE
CCOC(=O)C1=C(C)N=c2sc(=Cc3ccccc3O)c(=O)n2C1c1ccc(OC)c2ccccc12 (stereo not drawn) | FALSE
CCN1CCN(Cc2ccc(NC(=O)c3cc4ccc5cccnc5c4[nH]3)cc2)CC1 | FALSE

State whether the measured inhibition reaches 20%, counting equality as reaching it, for COc1ccc(C2C(C(=O)Nc3cccc(OC)c3)c3ccccc3C(=O)N2C2CCCCC2)cc1 (stereo not drawn)
TRUE

Textbook exercise: given the entry "CCN(Cc1ccccc1)C1CCN(Cc2cc(Br)ccc2O)CC1.O=C(O)C(=O)O" , state whether its inhibition is greater than or equal to 20%.
FALSE

Item "CC1=C(CC(=O)c2cccc([N+](=O)[O-])c2)C(=O)c2ccccc2C1=O" with inhibition of 20% or above?
FALSE
